Readings of Kd for the listed binders
molecular target: T1, human CD3E&G complex (Sino Biological Inc., CT041-H0305H) (human, UniProt P07766 23-126; P09693 23-116); assay: BLI, antibody on sensor
T1 construct: bought heterodimer; also called human CD3E&G antigen
T1 sequence (P07766 23-126, chain 1 of 2): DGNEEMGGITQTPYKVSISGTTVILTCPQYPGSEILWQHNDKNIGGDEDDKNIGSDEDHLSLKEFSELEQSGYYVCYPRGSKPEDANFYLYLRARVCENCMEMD
T1 sequence (P09693 23-116, chain 2 of 2): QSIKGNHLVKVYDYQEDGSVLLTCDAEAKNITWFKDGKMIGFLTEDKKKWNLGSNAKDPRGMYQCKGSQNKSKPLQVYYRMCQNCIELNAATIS
Please answer using a numeric value trailed by its unit.

Challenge: Entry hzsp34.89 (antibody, human IgG1, lambda, L234A L235A, V domains shown, CDR mutant of hzsp34.24; IgG1 L234A L235A, lambda) VH: EVQLVESGGGLVQPGGSLKLSCAASGFTFNTYAMNWVRQASGKGLEWVGRIRSKYNNYATYYADSVKDRFTISRDDSKSTLYLQMNSLKTEDTAVYYCARHGNAGQSYVSWFAYWGQGTTVTVSS VL: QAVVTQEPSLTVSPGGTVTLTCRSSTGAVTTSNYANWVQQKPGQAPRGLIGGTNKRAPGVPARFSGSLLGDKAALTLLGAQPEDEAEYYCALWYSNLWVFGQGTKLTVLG has what Kd?
Response given: 13.8 nM

Challenge: Please give the result for hzsp34.79 (antibody, human IgG1, lambda, L234A L235A, V domains shown, CDR mutant of hzsp34.24; IgG1 L234A L235A, lambda) VH: EVQLVESGGGLVQPGGSLKLSCAASGFTFNGYAMNWVRQASGKGLEWVGRIRSKYNNYATYYADSVKDRFTISRDDSKSTLYLQMNSLKTEDTAVYYCARHGNFGQSYVSWFAYWGQGTTVTVSS VL: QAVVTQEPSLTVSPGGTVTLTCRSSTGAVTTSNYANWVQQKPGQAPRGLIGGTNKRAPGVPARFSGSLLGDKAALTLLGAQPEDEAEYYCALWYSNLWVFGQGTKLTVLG too.
Response given: 6.36 nM

Challenge: Now the binder hzsp34.112 (antibody, human IgG1, lambda, L234A L235A, V domains shown, CDR mutant of hzsp34.24; IgG1 L234A L235A, lambda) VH: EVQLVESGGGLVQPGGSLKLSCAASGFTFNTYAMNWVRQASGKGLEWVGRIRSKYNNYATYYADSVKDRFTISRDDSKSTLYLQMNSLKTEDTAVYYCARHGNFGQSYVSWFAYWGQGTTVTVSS VL: QAVVTQEPSLTVSPGGTVTLTCRSSTGAVTTRGYANWVQQKPGQAPRGLIGGTNKRAPGVPARFSGSLLGDKAALTLLGAQPEDEAEYYCALWYSNLWVFGQGTKLTVLG
Response given: 6.6 nM

Challenge: Another binder to look at: hzsp34.94 (antibody, human IgG1, lambda, L234A L235A, V domains shown, CDR mutant of hzsp34.24; IgG1 L234A L235A, lambda) VH: EVQLVESGGGLVQPGGSLKLSCAASGFTFNTYAMNWVRQASGKGLEWVGRIRSKYNNYATYYADSVKDRFTISRDDSKSTLYLQMNSLKTEDTAVYYCARHGNFGQSYASWFAYWGQGTTVTVSS VL: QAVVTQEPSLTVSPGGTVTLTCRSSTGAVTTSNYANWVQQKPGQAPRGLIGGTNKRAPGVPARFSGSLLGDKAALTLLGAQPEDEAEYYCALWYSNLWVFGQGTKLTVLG
Response given: 4.63 nM
